Listed next: entries and their corresponding Km.
# Substrate: O=S(O)(O)=S
# protocol description: purified protein
# Assay type: biochemical, Allochromatium vinosum
# condition notes: 1 mM potassium ferricyanide as electron acceptor, 100 mM ammonium acetate pH 4.25, 24 °C
measurement type: Km (mM)

protein	measurement type	observed
TsdA (thiosulfate dehydrogenase) (Allochromatium vinosum DSM 180; R224A) (protein, native signal peptide (removed on export), C-terminal strep(II) tag kept; E. coli Lemo56(DE3) with pEC86; two c-type hemes; 28,228 Da by ESI-MS; 234 residues modeled) EEPPTVALTVPAAALLPDGALGESIVRGRRYLSDTPAQLPDFVGNGLACRHCHPGRDGEVGTEANAAPFVGVVGRFPQYSARHGRLITLEQRIGDCFERSLNGRALALDHPALIDMLAYMSWLSQGVPVGAVVAGHGIPTLTLEREPDGVHGEALYQARCLACHGADGSGTLDADGRYLFPPLWGPRSFNTGAGMNAQATAAGFIKHKMPLGADDSLSDEEAWDVAGFVLTHPRPLFQEPTGD	Km	2.5
TsdA (thiosulfate dehydrogenase) (Allochromatium vinosum DSM 180; S127A) (protein, native signal peptide (removed on export), C-terminal strep(II) tag kept; E. coli Lemo56(DE3) with pEC86; two c-type hemes; 28,228 Da by ESI-MS; 234 residues modeled) EEPPTVALTVPAAALLPDGALGESIVRGRRYLSDTPAQLPDFVGNGLACRHCHPGRDGEVGTEANAAPFVGVVGRFPQYSARHGRLITLEQRIGDCFERALNGRALALDHPALIDMLAYMSWLSQGVPVGAVVAGHGIPTLTLEREPDGVHGEALYQARCLACHGADGSGTLDADGRYLFPPLWGPRSFNTGAGMNRQATAAGFIKHKMPLGADDSLSDEEAWDVAGFVLTHPRPLFQEPTGD	Km	10.7
TsdA (thiosulfate dehydrogenase) (Allochromatium vinosum DSM 180; R119A) (protein, native signal peptide (removed on export), C-terminal strep(II) tag kept; E. coli Lemo56(DE3) with pEC86; two c-type hemes; 28,228 Da by ESI-MS; 234 residues modeled) EEPPTVALTVPAAALLPDGALGESIVRGRRYLSDTPAQLPDFVGNGLACRHCHPGRDGEVGTEANAAPFVGVVGRFPQYSARHGRLITLEQAIGDCFERSLNGRALALDHPALIDMLAYMSWLSQGVPVGAVVAGHGIPTLTLEREPDGVHGEALYQARCLACHGADGSGTLDADGRYLFPPLWGPRSFNTGAGMNRQATAAGFIKHKMPLGADDSLSDEEAWDVAGFVLTHPRPLFQEPTGD	Km	47
TsdA (thiosulfate dehydrogenase) (Allochromatium vinosum DSM 180; R109A) (protein, native signal peptide (removed on export), C-terminal strep(II) tag kept; E. coli Lemo56(DE3) with pEC86; two c-type hemes; 28,228 Da by ESI-MS; 234 residues modeled) EEPPTVALTVPAAALLPDGALGESIVRGRRYLSDTPAQLPDFVGNGLACRHCHPGRDGEVGTEANAAPFVGVVGRFPQYSAAHGRLITLEQRIGDCFERSLNGRALALDHPALIDMLAYMSWLSQGVPVGAVVAGHGIPTLTLEREPDGVHGEALYQARCLACHGADGSGTLDADGRYLFPPLWGPRSFNTGAGMNRQATAAGFIKHKMPLGADDSLSDEEAWDVAGFVLTHPRPLFQEPTGD	Km	5.8

meta.source: paper PMC4423706
